Cited source: PubChem BioAssay (Tox21)

Assay Text: qHTS RealTime-Glo MT Cell Viability Assay in HEK293 cells - 32 hour (AID 1224868); also: nearly all actives have a fitted effect of over 50% in size
Reported Conditions: RealTime-Glo luminescence; series mostly up to 76.8 µM
Inconclusive results are not listed. Activity calls are given as the source filed them. Calls follow the shape of the dose curve; as a rule, active = well fitted cell-killing curve with a large enough effect in the repeat runs; inconclusive = weak or mixed curves, or effect the other way; inactive = flat fitted curve, though single readings scatter.
Log the outcome using a class from active, inactive

Ask: // outcome(item) with item = CCCCCCCN
Reply: inactive

Ask: // outcome(item) with item = CN1CCN(C(c2ccccc2)c2ccccc2)CC1
Reply: inactive

Ask: // outcome(item) with item = O=[N+]([O-])c1ccc(NCCO)c(OCCO)c1
Reply: inactive

Ask: // outcome(item) with item = ClCCOCCOCCCl
Reply: inactive

Ask: // outcome(item) with item = CCCCCCCCCc1ccc(OCCOCCO)cc1
Reply: active

Ask: // outcome(item) with item = CCN(CC)c1ccc(C(=C2C=CC(=[N+](CC)CC)C=C2)c2cc(S(=O)(=O)O)ccc2S(=O)(=O)[O-])cc1
Reply: inactive

Ask: // outcome(item) with item = O=[N+]([O-])c1cccc(S(=O)(=O)O)c1
Reply: active

Ask: // outcome(item) with item = C[Si](C)(CCCN)O[Si](C)(C)CCCN
Reply: inactive

Ask: // outcome(item) with item = OCCNCc1ccccc1
Reply: inactive

Ask: // outcome(item) with item = CC(CC=O)c1ccccc1 (stereo not drawn)
Reply: inactive

Ask: // outcome(item) with item = COCC(C)OC(C)=O (stereo not drawn)
Reply: inactive

Ask: // outcome(item) with item = C=CC1CC2C=CC1C2 (stereo not drawn)
Reply: inactive

Ask: // outcome(item) with item = Cc1c(N)cccc1[N+](=O)[O-]
Reply: inactive

----------
Assay Text: A CellTox Green Cytotoxicity Assay to monitor cytotoxicity in HEK293 cells - 40 hour (AID 1224871); also: nearly all actives have a fitted effect of over 45% in size
Reported Conditions: CellTox Green fluorescence; series mostly up to 76.8 µM
Inconclusive results are not listed. Active and inactive are the calls of the source. Calls come from the whole dose curve; as a rule, active = well fitted activation curve with a large enough effect in the repeat runs; inconclusive = weak or mixed curves; inactive = flat fitted curve, though single readings scatter.
Log the outcome using a class from active, inactive

Ask: // outcome(item) with item = CCOC(=O)NCCOc1ccc(Oc2ccccc2)cc1
Reply: inactive

Ask: // outcome(item) with item = COc1ccc(C(=O)N2CCN(CC(=O)N3CCOCC3)CC2)cc1
Reply: inactive

Ask: // outcome(item) with item = CCC(Cl)CCC(Cl)C(Cl)CC(Cl)C(Cl)C(Cl)CCl (stereo not drawn)
Reply: inactive

Ask: // outcome(item) with item = CC1=CC[C@H](C(C)C)C=C1
Reply: inactive

Ask: // outcome(item) with item = CCOC(=O)C(O)c1ccccc1 (stereo not drawn)
Reply: inactive

Ask: // outcome(item) with item = CCCCC/C=C\C/C=C\CCCCCCCC(=O)NC(C)c1ccccc1 (stereo not drawn)
Reply: inactive

Ask: // outcome(item) with item = NS(=O)(=O)c1ccc(N2CCCCS2(=O)=O)cc1
Reply: inactive

Ask: // outcome(item) with item = CCCCc1nc2cccnc2n1Cc1ccc(-c2ccccc2-c2nnn[nH]2)cc1
Reply: inactive

Ask: // outcome(item) with item = CCCCCCOC(=O)NC(=N)c1ccc(NCc2nc3cc(C(=O)N(CCC(=O)OCC)c4ccccn4)ccc3n2C)cc1
Reply: inactive

Ask: // outcome(item) with item = O=C(O)c1ccco1
Reply: inactive

Ask: // outcome(item) with item = CC1OC(=O)C(C)OC1=O (stereo not drawn)
Reply: inactive

Ask: // outcome(item) with item = c1ccc(CNCCNCc2ccccc2)cc1
Reply: inactive

Ask: // outcome(item) with item = CCc1c(C(=O)NN2CCCCC2)nn(-c2ccc(Cl)cc2Cl)c1-c1ccc(Br)cc1
Reply: inactive

Ask: // outcome(item) with item = Cc1ccc(C(=O)Oc2ccc(C(O)CNC(C)(C)C)cc2OC(=O)c2ccc(C)cc2)cc1 (stereo not drawn)
Reply: active

Ask: // outcome(item) with item = CC(COCCO)OCCO (stereo not drawn)
Reply: inactive

Ask: // outcome(item) with item = NCc1ccccc1Sc1ccccc1CO
Reply: inactive

Ask: // outcome(item) with item = O=C(O)C1(C(=O)Nc2ccc(Cl)cc2Cl)CC1
Reply: inactive

Ask: // outcome(item) with item = CCCCCCCC/C=C\CCCCCCCC(=O)OCC
Reply: inactive

Ask: // outcome(item) with item = O=C1OC(CN2CCOCC2)CN1/N=C/c1ccc([N+](=O)[O-])o1 (stereo not drawn)
Reply: inactive

Ask: // outcome(item) with item = CN(C)CCCN1c2ccccc2Sc2ccccc21
Reply: inactive

Ask: // outcome(item) with item = CCCCC(CC)COC(=O)COc1ccc(Cl)cc1Cl (stereo not drawn)
Reply: inactive

Ask: // outcome(item) with item = CO[C@@H]1[C@H](OC(=O)/C=C/C=C/C=C/C=C/C(=O)O)CC[C@]2(CO2)[C@H]1[C@@]1(C)O[C@@H]1CC=C(C)C
Reply: inactive

Ask: // outcome(item) with item = ClCCOCCOCCCl
Reply: inactive

Ask: // outcome(item) with item = Cc1cccc(C)c1NC(=O)CN(CC(=O)O)CC(=O)O
Reply: inactive

Ask: // outcome(item) with item = CCCCc1ncc(/C=C(\Cc2cccs2)C(=O)O)n1Cc1ccc(C(=O)O)cc1
Reply: inactive

Ask: // outcome(item) with item = Nc1ccc(N)c2c1C(=O)c1ccccc1C2=O
Reply: inactive

Ask: // outcome(item) with item = O=C(CS)Nc1ccccc1
Reply: inactive

Ask: // outcome(item) with item = NCCCN1CCOCC1
Reply: inactive

Ask: // outcome(item) with item = CCCCCCCCCc1ccc(OCCOCCO)cc1
Reply: active

Ask: // outcome(item) with item = C=C(C)C(=O)OCCOCC
Reply: inactive

Ask: // outcome(item) with item = O=S(=O)(Oc1ccc(Cl)cc1)c1ccccc1
Reply: inactive

Ask: // outcome(item) with item = CCNc1cc(O)ccc1C
Reply: active

Ask: // outcome(item) with item = C=C(C)C(=O)OCC
Reply: inactive

Ask: // outcome(item) with item = CCOC(=O)C(=O)CCc1ccccc1
Reply: inactive

Ask: // outcome(item) with item = c1ccc(-c2ccccn2)nc1
Reply: inactive

Ask: // outcome(item) with item = Nc1cccc([N+](=O)[O-])c1
Reply: inactive

Ask: // outcome(item) with item = N=c1ccn2c(n1)O[C@H]1[C@H](O)[C@@H](CO)O[C@H]12
Reply: inactive

Ask: // outcome(item) with item = COCCCN1CCC(NC(=O)c2cc(Cl)c(N)c3c2OCC3)CC1
Reply: inactive

Ask: // outcome(item) with item = O=[N+]([O-])c1ccc2[nH]ncc2c1
Reply: inactive

Ask: // outcome(item) with item = OCCN1CCN(CCCN2c3ccccc3C=Cc3ccccc32)CC1
Reply: inactive

Ask: // outcome(item) with item = C/C=C(/C(=C/C)c1ccc(OC(C)=O)cc1)c1ccc(OC(C)=O)cc1
Reply: inactive

Ask: // outcome(item) with item = Cc1oc(-c2ccccc2)nc1CCOc1cccc2c1ccn2CCC(=O)O
Reply: inactive

Ask: // outcome(item) with item = CC1CCC(=O)C1=O (stereo not drawn)
Reply: inactive

Ask: // outcome(item) with item = CC(C)(C)OCC1CO1 (stereo not drawn)
Reply: inactive

Ask: // outcome(item) with item = O=C(OCCCCCCOC(=O)c1ccccc1)c1ccccc1
Reply: inactive

Ask: // outcome(item) with item = O=C1CCCCCCCCCCCC(=O)OCCO1
Reply: active

Ask: // outcome(item) with item = CCOCC(O)COc1ccc(NC(=O)CC[S+](C)C)cc1 (stereo not drawn)
Reply: inactive

Ask: // outcome(item) with item = CN1CCC(N(Cc2cccs2)c2ccccc2)CC1
Reply: active

----------
Assay Text: qHTS assay to identify small molecule antagonists of the retinoic acid receptor (RAR) signaling pathway (AID 1159552; also: nearly all actives have a fitted effect of over 50% in size)
Reported Conditions: C3RL4 RARE luciferase reporter, retinol-stimulated, 6 h; series mostly up to 92.4 µM
Text: National Center for Advancing Translational Sciences [NCATS] NIH Chemical Genomics Center [NCGC] U.S. Environmental Protection Agency [EPA] National Institutes of Environmental Health Sciences [NIEHS] National Toxicology Program [NTP] U.S. Food and Drug Administration [FDA] […]
Inconclusive results are not listed. Calls of active or inactive are those of the source. Calls come from the whole dose curve; as a rule, active = well fitted inhibition curve with a large enough effect in the repeat runs; inconclusive = weak or mixed curves, or effect the other way; inactive = no such curve, though single readings can be large or run the other way.
Readout Label: activity, negative = inhibition

O=C(O)C1(C(=O)Nc2ccc(Cl)cc2Cl)CC1; inactive
Cc1oc2c(NC(=O)c3c(Cl)cccc3Cl)cccc2c1C(C)(C)O; inactive
CCCCCCCC/C=C\CCCCCCCC(=O)OCC; inactive

----------
Assay Text: qHTS assay to identify small molecule antagonists of the constitutive androstane receptor (CAR) signaling pathway - cell viability counter screen (AID 1224837); also: nearly all actives have a fitted effect of over 45% in size
Reported Conditions: HepG2-CYP2B6-hCAR viability, CellTiter-Fluor, 23 h, co-treated with 50 nM CITCO; series mostly up to 92.4 µM
Inconclusive results are not listed. Calls of active or inactive are those of the source. Calls come from the whole dose curve; as a rule, active = well fitted cell-killing curve with a large enough effect in the repeat runs; inconclusive = weak or mixed curves, or effect the other way; inactive = flat fitted curve, though single readings scatter.
Log the outcome using a class from active, inactive

Ask: // outcome(item) with item = CCOCC(O)COc1ccc(NC(=O)CC[S+](C)C)cc1 (stereo not drawn)
Reply: inactive

Ask: // outcome(item) with item = C=C(C)C(=O)OCC
Reply: inactive

Ask: // outcome(item) with item = C1CCCNCCC1
Reply: inactive

Ask: // outcome(item) with item = O=C(O)c1ccco1
Reply: inactive

Ask: // outcome(item) with item = C[C@@H]1C[C@H]2O[C@@]3(O[C@@H]2C(C)(C)O)[C@H](O)[C@@]2(C)[C@@H]4CC[C@H]5C(C)(C)[C@@H](O[C@@H]6OC[C@@H](O)[C@H](O)[C@H]6O)CC[C@@]56C[C@@]46CC[C@]2(C)[C@@H]13
Reply: inactive

Ask: // outcome(item) with item = COCCCN1CCC(NC(=O)c2cc(Cl)c(N)c3c2OCC3)CC1
Reply: inactive

Ask: // outcome(item) with item = COc1ccc(S(=O)(=O)N2C(=O)[C@@](c3ccccc3OC)(N3C[C@H](O)C[C@H]3C(=O)N(C)C)c3cc(Cl)ccc32)c(OC)c1
Reply: active

Ask: // outcome(item) with item = CCCCCCCCCCCc1ccccc1
Reply: inactive

Ask: // outcome(item) with item = CCCCNc1ccc(C(=O)OCCOCCOCCOCCOCCOCCOCCOCCOCCOC)cc1
Reply: inactive

Ask: // outcome(item) with item = CC(C)O.CC(C)O.CCOC(=O)/C=C(\C)O.CCOC(=O)/C=C(\C)O.[Ti]
Reply: inactive

Ask: // outcome(item) with item = O=C(Cl)c1cc(C(=O)Cl)cc(C(=O)Cl)c1
Reply: inactive

Ask: // outcome(item) with item = CCOC(=O)c1cccnc1
Reply: inactive

Ask: // outcome(item) with item = CC1(c2ccccc2)OC(C(=O)O)=CC1=O (stereo not drawn)
Reply: inactive

Ask: // outcome(item) with item = CN(Cc1ccc(C(C)(C)C)cc1)Cc1cccc2ccccc12
Reply: inactive

Ask: // outcome(item) with item = CC1=CC[C@H](C(C)C)C=C1
Reply: inactive

Ask: // outcome(item) with item = OC(C#CCN1CCCC1)(c1ccccc1)c1ccccc1
Reply: inactive

Ask: // outcome(item) with item = CCCCC1=NC2(CCCC2)C(=O)N1Cc1ccc(-c2ccccc2-c2nn[nH]n2)cc1
Reply: inactive

Ask: // outcome(item) with item = CCCNCC(O)COc1ccccc1C(=O)CCc1ccccc1 (stereo not drawn)
Reply: inactive

Ask: // outcome(item) with item = COc1cc(Cl)ccc1Oc1ccc(Cl)cc1Cl
Reply: inactive

Ask: // outcome(item) with item = CCCCCCCC/C=C\CCCCCCCC(=O)OCC
Reply: inactive

Ask: // outcome(item) with item = COCC(C)OC(C)=O (stereo not drawn)
Reply: inactive

Ask: // outcome(item) with item = CCCCCC[C@@H](O)C/C=C\CCCCCCCC(=O)OC
Reply: inactive

Ask: // outcome(item) with item = CC(=O)OC[C@H]1O[C@@H](n2ncc(=O)[nH]c2=O)[C@H](OC(C)=O)[C@@H]1OC(C)=O
Reply: inactive

Ask: // outcome(item) with item = c1ccc(-c2ccccn2)nc1
Reply: inactive

Ask: // outcome(item) with item = O=C(NCCO[N+](=O)[O-])c1cccnc1
Reply: inactive

Ask: // outcome(item) with item = C[N+]1(C)CCC(OC(=O)C(O)(c2ccccc2)C2CCCC2)C1 (stereo not drawn)
Reply: inactive

Ask: // outcome(item) with item = CO[C@@H]1[C@H](OC(=O)/C=C/C=C/C=C/C=C/C(=O)O)CC[C@]2(CO2)[C@H]1[C@@]1(C)O[C@@H]1CC=C(C)C
Reply: inactive

Ask: // outcome(item) with item = CN1Cc2cc(C(=O)N3CCC(C4CCNCC4)CC3)ccc2NC(CC(=O)O)C1=O (stereo not drawn)
Reply: inactive
